assay.details: Antagonist activity at rabbit CXCR2 by neutrophil chemotaxis assay
measurement.kind: IC50 (nM)

a: N#Cc1ccc2[nH]c(-c3ccc(F)cc3)c(CCCC(=O)NS(=O)(=O)C(F)(F)F)c2c1
b: CNS(=O)(=O)NC(=O)CCCc1c(-c2ccc(F)cc2)[nH]c2ccc(C#N)cc12
c: CS(=O)(=O)NC(=O)CCCc1c(-c2ccc(F)cc2)[nH]c2ccc(C#N)cc12
d: CS(=O)(=O)NC(=O)NCCc1c(-c2ccc(F)cc2)[nH]c2ccc(Br)cc12
From the items above, give an ordering by IC50 that starts at the lowest reported number. Field: ranking. Enter the labels in the order requested.
b, c, a, d

a: O=C(NCCc1c(-c2ccc(F)cc2)[nH]c2ccc(Br)cc12)NS(=O)(=O)c1ccccc1
b: CN(C)S(=O)(=O)NC(=O)CCCc1c(-c2ccc(F)cc2)[nH]c2ccc(C#N)cc12
Pick one, a or b : lowest reported IC50. To answer, give the label that identifies your chosen option.
b
(b: 700 nM, a: 1700 nM)
